- System: HOP-62 NSCLC
- procedureSummary: NCI-60 one-dose screen, 48 h (100 = growth as untreated, 0 = no growth, -100 = all killed)
- statedConditions: 10 µM unless noted
The panel holds about 83,000 compounds, 20% with a hit somewhere; the sample as a whole holds those more often.
// growth lookup, one value per entry
# unit: % | format: bare number

{"molecule": "NCCNc1nc2ccc(F)cc2c2c(=O)c3cc(F)ccc3sc12", "growth (%)": 56.5}
{"molecule": "NS(=O)(=O)c1ccc(CCN=C=S)cc1", "growth (%)": 101}
{"molecule": "C=CCN1C(=O)/C(=c2\\sc3n(c2=O)NC2C(N=3)N(CC)C(=O)N2CC)c2ccccc21 (stereo not given)", "growth (%)": 62.7}
{"molecule": "CC(C)Cn1c2c(c(=S)[nH]c1=O)CCC2", "growth (%)": 102}

Next molecule, please.
Note to self: growth recorded for O=C(/C=C/c1ccc(F)cc1)c1ccc(Nc2nc(NCCO)nc(Nc3ccc(Cl)cc3)n2)cc1 was 80.8

----------
- Tested on: SR leukemia
- procedureSummary: NCI-60 one-dose screen, 48 h
- statedConditions: 10 µM unless noted
About 83,000 compounds went through this panel and 20% of them were active in at least one assay; those are over-represented in the sample as a whole. Activity calls are given as the source filed them. How the source made its calls: active means growth percent below 10; inactive means the rest.
Select the matching outcome among Yes for active, No for inactive

{"molecule": "O=C(c1nc2ccccc2[nH]1)C1C(c2ccc(F)cc2)C2CC3CCCCC3N2[C@@]12C(=O)Nc1ccc(Cl)cc12 (some centres undefined)", "studyTarget": "SR leukemia", "classAssignment": "No"}
{"molecule": "COc1ccc(/C=C2\\NC(=O)NC2=O)cc1O", "studyTarget": "SR leukemia", "classAssignment": "No"}

Attention now turns to another entry.
Exercise: Field: outcome | Entry: COc1ccc(-c2nsc3c2NC(=O)CC3c2ccsc2)cc1 (centres undefined)
Solution: No

----------
List of growth values.
- Test system: SF-539 CNS
- procedureSummary: NCI-60 one-dose screen, 48 h (100 = growth as untreated, 0 = no growth, -100 = all killed)
- statedConditions: 10 µM unless noted
The panel holds about 83,000 compounds, 20% with a hit somewhere; the sample as a whole holds those more often.
Respond with the bare value in %.

{"molecule": "O=C(Nc1ccc(I)cc1F)c1cc(Cl)ccc1O", "growth (%)": 2.65}
{"molecule": "N#C/C(=C\\c1c(-c2ccccc2)[nH]c2ccccc12)C(=O)c1ccccc1", "growth (%)": 21.7}

Summary for this molecule, NCCOc1ncccc1/C=C1\c2ccccc2-c2ccc([N+](=O)[O-])cc21 : growth is -83

For this molecule ( COc1ccc(-c2cn[nH]c2-c2ccc(OC)c(O)c2)cc1 ), measured growth is 76.9

Given item CC(C)CCOc1ccc(-c2n[nH]c(C(F)(F)F)c2-c2cncc(C#N)c2)c(O)c1 , the value recorded as its growth is 25.2

The molecule identified as COc1ccc(N(C)c2nc(N)nc3sc4c(c23)CCCC4)cc1 registered its growth at -6.54

For record O=C(Nc1ccc(F)cc1F)c1cc(Cl)ccc1O the listed growth is 12.3

Reported growth of CCCCN1CCN(c2ccc3nc(-c4ccc5nc(-c6ccc(C(F)(F)F)cc6)[nH]c5c4)[nH]c3c2)CC1 : -92.8

Item: COc1ccc(-c2nc(N3CCN(C(=O)C4CCCCC4)CC3)c3c4c(sc3n2)CCCC4)cc1 | growth: -1.73

So, CCCN1CCN(c2ccc3nc(-c4ccc5nc(-c6cc(OC)ccc6OC)[nH]c5c4)[nH]c3c2)CC1 ? Its growth was 96.2

Cc1c(-c2csc(-n3nc(C(F)(F)F)cc3C(F)(F)F)n2)no[n+]1[O-] yielded growth of 99.1

For this molecule ( N#CC(C#N)=Cc1c(-c2ccccc2)[nH]c2ccccc12 ), measured growth is -11.7

Measured growth of COc1ccc(-c2nsc3c2NC(=O)CC3c2cccc(OC)c2)cc1 (stereo unspecified) : 13

# growth (molecule: O=C1NC(=O)C(=Cc2cn(Cc3cn(Cc4ccc(Cl)cc4Cl)nn3)c3ccccc23)C(=O)N1 ) is 93

For record Cc1cc(Br)c(N)c(Br)c1 the listed growth is 95.5

Kindly note the recorded growth for O=C(CN1C=NC2C(N3CCOCC3)=NC=NC21)c1cccc2ccccc12 (stereo unspecified) , which is 98.9

Per the records, this molecule ( O=c1c2cc(F)ccc2sc2c(NCCCNCCO)nc3ccc(Cl)cc3c12 ) has growth equal to 84.8

// sample CN1C(=O)N(C)C2C1NN=c1s/c(=C\c3ccc(Cl)cc3Cl)c(=O)n12 (stereo unspecified) , its growth was 1.09

growth reading for CC(=O)c1ccc(Cc2ccc(C(C)=O)s2)s1 : 94.1

In plain terms, COc1cc(CNC(=O)Cc2ccccc2)ccc1OCc1cn(-c2ccc(F)cc2)nn1 has a documented growth of 99.5

Sample O=C(CCc1nnc2sc(Cc3ccccc3Cl)nn12)c1nc2ncccc2[nH]1 ; growth observed: 94.2

----------
- Tested on: UACC-257 melanoma
- procedureSummary: NCI-60 one-dose screen, 48 h (100 = growth as untreated, 0 = no growth, -100 = all killed)
- statedConditions: 10 µM unless noted
This is part of a sample that, as a whole, favours compounds with a hit. Of some 83,000 tested, about 20% had one in any assay. Active and inactive are the calls of the source. How the source made its calls: active means growth percent below 10; inactive means the rest.
Below, each entry is listed with its recorded growth.

{"compound": "COc1cccc2c(=O)c3c(sc12)c(NCCCNCCO)nc1ccccc13", "growth": "84.5% (inactive)"}
{"compound": "COc1ccc(CN2CCCC(C(=O)c3ccc(C(F)(F)F)cc3)C2)c(O)c1 (stereo unspecified)", "growth": "40.1% (inactive)"}
{"compound": "O=C1/C(=C/c2ccc(O)cc2)COc2ccc(O)c(O)c21", "growth": "63.2% (inactive)"}
{"compound": "O=C(Nc1ccc(I)cc1F)c1cc(Br)ccc1O", "growth": "-18.2% (active)"}
{"compound": "COc1ccccc1C1=C(Br)C(=O)c2nc(C)ccc2C1=O", "growth": "99.6% (inactive)"}

Please find the next compound below.
growth measured on O=C1/C(=C/c2ccc(O)cc2)COc2ccc(O)cc21 = 104% (inactive)

----------
- Tested on: UACC-257 melanoma
- procedureSummary: NCI-60 one-dose screen, 48 h (100 = growth as untreated, 0 = no growth, -100 = all killed)
- statedConditions: 10 µM unless noted
- Protocol: Cells are grown in 96 well plates and exposed to the test compound for 48 hours. Compounds are tested at a single concentration, which is 10^-5 M for most compounds. The reported endpoint is percent growth (GI% or GIPRCNT), where numbers from 0 - 100% represent growth inhibition, and numbers from -100% - 0 represent cell death. For example, a value of 40 represents 60% growth inhibition. A value of 0 means no net growth occurred over the course of the experiment. […]
Compounds without any hit were thinned out: in the full panel of roughly 83,000, 20% have a hit.
Quick rule for you: growth at 70% or higher means met, lower means not met.

{"molecule": "CCOC(=O)c1sc(-c2ccc(OS(=O)(=O)c3ccccc3[N+](=O)[O-])c(C=O)c2)nc1C", "classAssignment": "not met"}

Exercise: # bool: growth of O=c1oc2ccc(Cl)cc2c(=O)n1-c1ccc(F)cc1F >= 70%
Solution: not met

Exercise: Determine whether this molecule has growth no lower than 70%: O=C1N=c2ccccc2=C1c1sc(=Nc2ccccc2)n(Nc2ccccc2)c1O
Solution: met

Exercise: Confirm if growth reported for the molecule NNC(=O)CNC(=O)Nc1n[nH]c(=S)s1 is 70% or above.
Solution: met

Exercise: Reported growth at or above 70%? CCN1C(=O)N(c2ccccc2)C2NN=c3s/c(=C4\C(=O)N(C(C)C)c5ccccc54)c(=O)n3C21 (centres undefined)
Solution: met

Exercise: Does the reported growth for CC(C)CCOc1ccc(-c2n[nH]c(C(F)(F)F)c2-c2cncc(C#N)c2)c(O)c1 fall at or above the 70% mark?
Solution: not met

Exercise: Can COC(=O)/C(CCC=C(C)C)=C1\[C@@H](OC(C)=O)C[C@@]2(C)[C@H]1C[C@@H](O)[C@H]1[C@@]3(C)CC[C@H](NC(=O)c4cnccn4)[C@@H](C)[C@@H]3CC[C@@]12C be said to have growth at or above 70%?
Solution: met

Exercise: Tell me whether growth is at least 70% here: CC(=Nc1ccccc1)C1=C(O)C(Cc2ccc(F)cc2)NC1=O (centres undefined)
Solution: not met

----------
compounds and their reported growth
- Tested on: TK-10 renal
- procedureSummary: NCI-60 one-dose screen, 48 h (100 = growth as untreated, 0 = no growth, -100 = all killed)
- statedConditions: 10 µM unless noted
The panel holds about 83,000 compounds, 20% with a hit somewhere; the sample as a whole holds those more often.
Provide only the numeric value, understood in %.

Take a look at these entries with their results.
{"compound": "COc1ccc(/C=c2\\sc3n(c2=O)NC2C(N=3)N(C)C(=O)N2C)cc1 (stereo not given)", "studyTarget": "TK-10 renal", "growth / %": 112}
{"compound": "COc1cc(C2C3=C(COC3=O)N(CCO)c3cc4c(cc32)OCCO4)cc(OC)c1O (stereo not given)", "studyTarget": "TK-10 renal", "growth / %": 47.4}

Lab note: measured growth of CCCC(c1nnnn1C1CCCCC1)N1CCN(C(=O)c2ccco2)CC1 (stereo not given) was 86.7

Reported growth for O=c1oc2ccc(I)cc2c(=O)n1-c1ccc(F)cc1F was 11.6

response.value for COC(=O)c1c2c(c(C)[n+]([O-])c1C)C(=O)C=C(NCc1ccccc1)C2=O (field: growth) = 18.1

Form field growth, entry O=c1oc2ccc(-c3ccc(F)cc3F)cc2c(=O)n1-c1cccc(C(F)(F)F)c1 : 11.6

Kindly note the recorded growth for COc1cc(C(=O)Nc2ccc(-c3nc4ccccc4[nH]3)cc2)cc(OC)c1OC , which is 60.1

// provenance: PubChem BioAssay (NCI)
